- assay_method_text: Phase 1 multiple ascending dose (MAD) study: pharmacokinetics
- Type: in vivo, human
- condition: human, plasma, oral, 30 mg, Cohort 3a, 30 mg QD, Day 1; read-out: Geometric Mean Tmax
assay_endpoint: Tmax (min)
API: value field is a number in min; no unit string.

For `C=CC(=O)N1C[C@H](Nc2ncnc3[nH]cc([C@H]4CC4(F)F)c23)CC[C@@H]1C` , what is its reported Tmax?
40.8

----------
- assay_method_text: Phase 1 single ascending dose (SAD) study: pharmacokinetics, food effect, formulation bridging
- Format: in vivo, human
- condition: both sexes, human, in vivo, po, 80 mg, single oral dose 80 mg, capsule, fasted; read-out: Tmax
assay_endpoint: Tmax (h)
Form entry: value (h) — number only.

Please give the measured Tmax for this compound: `C=CC(=O)N1C[C@H](Nc2ncnc3[nH]cc([C@H]4CC4(F)F)c23)CC[C@@H]1C`
1.22

----------
- assay_method_text: Phase 1 multiple ascending dose (MAD) study: pharmacokinetics
- Type: in vivo, human
- condition: human, plasma, oral; 30 mg QD, steady-state, 11.5 hours post-dose
assay_endpoint: concentration at 11.5 h

// returns reported concentration at 11.5 h for input `C=CC(=O)N1C[C@H](Nc2ncnc3[nH]cc([C@H]4CC4(F)F)c23)CC[C@@H]1C`
~4 ng/mL

----------
- Tested on: ITK & JAK (IFNγ protein)
- assay_method_text: Pre-clinical human whole blood αCD3 + IL-15/IFNγ (18 hr)
- Format: cell-based
- condition: Homo sapiens; read-out: Pre-clinical EC50
assay_endpoint: pEC50
pEC50 is a log-scale quantity: -log10 of the concentration expressed in molar.

Query (compound): C=CC(=O)N1C[C@H](Nc2ncnc3[nH]cc([C@H]4CC4(F)F)c23)CC[C@@H]1C [Compound I] ; field requested: pEC50
7.99

----------
- assay_method_text: Phase 1 multiple ascending dose (MAD) study: pharmacokinetics
- Format: in vivo, human
- condition: human, plasma, oral, 5 mg, Cohort 1, 5 mg BID, Day 15; read-out: Geometric Mean Tmax
assay_endpoint: Tmax (min)
// note: answer is a bare numeric in min

Which value of Tmax has been reported for `C=CC(=O)N1C[C@H](Nc2ncnc3[nH]cc([C@H]4CC4(F)F)c23)CC[C@@H]1C` in the records?
46.2

----------
- assay_method_text: Phase 1 single ascending dose (SAD) study: pharmacokinetics, food effect, formulation bridging
- Format: in vivo, human
- condition: both sexes, human, in vivo, po, 50 mg, single oral dose 50 mg, capsule, fasted; read-out: Tmax
assay_endpoint: Tmax (h)
Response body: numeric value in h, unit text excluded.

Dear colleague, I am looking for the recorded Tmax of the following compound: `C=CC(=O)N1C[C@H](Nc2ncnc3[nH]cc([C@H]4CC4(F)F)c23)CC[C@@H]1C`
1.24

----------
- assay_method_text: Phase 1 single ascending dose (SAD) study: pharmacokinetics, food effect, formulation bridging
- Format: in vivo, human
- condition: both sexes, human, in vivo, po, 5 mg, single oral dose 5 mg, capsule, fasted; read-out: Vz/F
- Method: Type of Study—This was an FIH, randomized, observer-blind, placebo-controlled study designed to evaluate the safety, tolerability, PK, and PD of Compound I in healthy subjects. The study consisted of: single ascending dose (SAD) cohorts (1-80 mg/day) plus formulation bridging and food effect (FE) cohorts. Approximately 64 male and female subjects were enrolled into 8 planned cohorts in the SAD study. […]
assay_endpoint: Vd/F (L)
Response body: numeric value in L, unit text excluded.

I'd like to know its Vd/F. The compound in question is `C=CC(=O)N1C[C@H](Nc2ncnc3[nH]cc([C@H]4CC4(F)F)c23)CC[C@@H]1C`
331

----------
- assay_method_text: Phase 1 multiple ascending dose (MAD) study: pharmacokinetics
- Format: in vivo, human
- condition: human, plasma, oral, 25 mg, Human 25 mg; read-out: Cmax
assay_endpoint: Cmax

Given `C=CC(=O)N1C[C@H](Nc2ncnc3[nH]cc([C@H]4CC4(F)F)c23)CC[C@@H]1C` , state its recorded Cmax.
81.8 ng/mL

----------
- assay_method_text: 13 week toxicology and toxicokinetic study in rats
- Assay type: in vivo, rat
- condition: in vivo, 80 mg/kg; rat, NOAEL 80 mpk
assay_endpoint: Cmax (ng/mL)
All answers are understood in ng/mL, so give the number only.

Entry C=CC(=O)N1C[C@H](Nc2ncnc3[nH]cc([C@H]4CC4(F)F)c23)CC[C@@H]1C [Compound I] has what Cmax?
13800

----------
- assay_method_text: Phase 1 single ascending dose (SAD) study: pharmacokinetics, food effect, formulation bridging
- Assay type: in vivo, human
- condition: both sexes, human, in vivo, po, 1 mg, single oral dose 1 mg, capsule, fasted; read-out: AUC0-24
assay_endpoint: AUC(0-t)

# AUC(0-t) lookup, item `C=CC(=O)N1C[C@H](Nc2ncnc3[nH]cc([C@H]4CC4(F)F)c23)CC[C@@H]1C`
5.95 ng·h/mL

----------
- assay_method_text: Phase 1 multiple ascending dose (MAD) study: pharmacokinetics
- Type: in vivo, human
- condition: human, plasma, oral, 30 mg, Cohort 3a, 30 mg QD, Day 1; read-out: Geometric Mean AUCINF_obs
assay_endpoint: AUC(0-inf) (ng·h/mL)
Give the number; ng·h/mL is assumed, so skip it.

GET /values?readout=AUC(0-inf)&item= `C=CC(=O)N1C[C@H](Nc2ncnc3[nH]cc([C@H]4CC4(F)F)c23)CC[C@@H]1C`
312

----------
- assay_method_text: Phase 1 multiple ascending dose (MAD) study: pharmacokinetics
- Type: in vivo, human
- condition: human, plasma, oral, 25 mg, Cohort 4, 25 mg BID, Day 1; read-out: Geometric Mean AUCINF_obs
assay_endpoint: AUC(0-inf)

What does the data say about its AUC(0-inf)? Entry: `C=CC(=O)N1C[C@H](Nc2ncnc3[nH]cc([C@H]4CC4(F)F)c23)CC[C@@H]1C`
175 ng·h/mL

----------
- assay_method_text: Phase 1 multiple ascending dose (MAD) study: pharmacokinetics
- Format: in vivo, human
- condition: plasma, oral; Human 25 mg; read-out: AUC0-τ
assay_endpoint: AUC (ng·h/mL)
Give just the number in ng·h/mL; leave the unit off.

Record request: AUC value, item `C=CC(=O)N1C[C@H](Nc2ncnc3[nH]cc([C@H]4CC4(F)F)c23)CC[C@@H]1C`
240

----------
- assay_method_text: 13 week toxicology and toxicokinetic study in cynomolgus monkeys
- Type: in vivo, cynomolgus monkey
- condition: cynomolgus monkey, in vivo, 3 mg/kg, monkey 3 mpk, Day 28; read-out: Cmax
assay_endpoint: Cmax (µg/mL)
# value in µg/mL; strip the unit string

Quick one: Cmax of C=CC(=O)N1C[C@H](Nc2ncnc3[nH]cc([C@H]4CC4(F)F)c23)CC[C@@H]1C [Compound I] ?
0.304

----------
- assay_method_text: Phase 1 single ascending dose (SAD) study: pharmacokinetics, food effect, formulation bridging
- Format: in vivo, human
- condition: both sexes, human, in vivo, po, 25 mg, single oral dose 25 mg, tablet; read-out: Tmax
- Protocol: Type of Study—This was an FIH, randomized, observer-blind, placebo-controlled study designed to evaluate the safety, tolerability, PK, and PD of Compound I in healthy subjects. The study consisted of: single ascending dose (SAD) cohorts (1-80 mg/day) plus formulation bridging and food effect (FE) cohorts. Approximately 64 male and female subjects were enrolled into 8 planned cohorts in the SAD study. […]
assay_endpoint: Tmax (h)
The answer is to be given in h; state only the numeric part.

Given the entry `C=CC(=O)N1C[C@H](Nc2ncnc3[nH]cc([C@H]4CC4(F)F)c23)CC[C@@H]1C` , report its measured Tmax.
1.07

----------
- assay_method_text: Phase 1 single ascending dose (SAD) study: pharmacokinetics, food effect, formulation bridging
- Format: in vivo, human
- condition: both sexes, human, in vivo, po, 1 mg, single oral dose 1 mg, capsule, fasted; read-out: Tmax
assay_endpoint: Tmax (min)
Express it in min; write the number only.

Need Tmax, item C=CC(=O)N1C[C@H](Nc2ncnc3[nH]cc([C@H]4CC4(F)F)c23)CC[C@@H]1C [Compound I]
40.4

----------
- assay_method_text: Phase 1 multiple ascending dose (MAD) study: pharmacokinetics
- Assay type: in vivo, human
- condition: human, plasma, oral, 40 mg, Cohort 5, 40 mg BID, Day 1; read-out: Geometric Mean AUCINF_obs
assay_endpoint: AUC(0-inf) (ng·h/mL)
Supply the numeric figure in ng·h/mL, leaving out any unit text.

Any idea what AUC(0-inf) was measured for `C=CC(=O)N1C[C@H](Nc2ncnc3[nH]cc([C@H]4CC4(F)F)c23)CC[C@@H]1C` ?
288

----------
- assay_method_text: Phase 1 single ascending dose (SAD) study: pharmacokinetics, food effect, formulation bridging
- Assay type: in vivo, human
- condition: both sexes, human, in vivo, po, 25 mg, single oral dose 25 mg, tablet
assay_endpoint: AUC(0-inf) (µg·h/mL)
Give just the numeric value; µg·h/mL need not be written.

Would you kindly share the measured AUC(0-inf) for `C=CC(=O)N1C[C@H](Nc2ncnc3[nH]cc([C@H]4CC4(F)F)c23)CC[C@@H]1C` ?
0.199
